Source: patent US12053459B2

# target.of.assay: CDK2/Cyclin E1(14-475) (Homo sapiens)
# experimental.details: Caliper LabChip EZ Reader mobility shift assay, inhibition of CDK2/Cyclin E1 activity
# Assay type: biochemical
# condition.details: class symbols A-D
readout.kind: IC50

Noted for CNC(=O)[C@H](CCCc1ccccc1)NC(=O)C1CN(C(=O)Cc2c[nH]c3cc(Cl)ccc23)CC2CN(C(=O)c3ccc(C)cn3)CC21 (stereo partly drawn) : its IC50 reads > 10 µM

Noted for CNC(=O)[C@H](CCCc1ccccc1)NC(=O)C1CN(C(=O)Cc2c[nH]c3cc(Cl)ccc23)CC2CN(C(=O)c3ccc(CC(C)C)cc3)CC21 (stereo partly drawn) : its IC50 reads 5 to 10 µM

Noted for CNC(=O)[C@H](CCCc1ccccc1)NC(=O)C1CN(C(=O)c2c[nH]c3ccc(F)cc23)CC2CN(C(=O)c3ccc(OC(C)C)c(OC)c3)CC21 (stereo partly drawn) : its IC50 reads > 10 µM

Noted for CNC(=O)[C@H](CCCc1ccccc1)NC(=O)C1CN(C(=O)CCc2c[nH]c3ccccc23)CC2CN(C(=O)c3ccc(OC(C)C)c(OC)c3)CC21 (stereo partly drawn) : its IC50 reads > 10 µM

Noted for CNC(=O)[C@H](CCCc1ccccc1)NC(=O)C1CN(C(=O)Cc2coc3cc(Cl)ccc23)CC2CN(C(=O)c3ccc(OC(C)C)c(OC)c3)CC21 (stereo partly drawn) : its IC50 reads 0.5 to 5 µM

Noted for CNC(=O)[C@H](CCCc1ccccc1)NC(=O)C1CN(C(=O)Cc2c[nH]c3cc(OCC4CC4)ccc23)CC2CN(C(=O)c3ccc(OC(C)C)c(OC)c3)CC21 (stereo partly drawn) : its IC50 reads > 10 µM

====

For each record, write down the corresponding IC50.
# target.of.assay: CDK2/Cyclin E1(14-475) (Homo sapiens, UniProt P24941)
# experimental.details: Caliper LabChip EZ Reader mobility shift assay, inhibition of CDK2/Cyclin E1 activity
# Format: biochemical
# condition.details: class symbols A-D

Noted for CNC(=O)[C@H](CCCc1ccccc1)NC(=O)C1CN(C(=O)Cc2c[nH]c3ccc(F)cc23)CC2CN(C(=O)c3ccc(OC(C)C)c(OC)c3)CC21 (stereo partly drawn) : its IC50 reads 0.5 to 5 µM

Noted for CNC(=O)[C@H](CCCc1ccccc1)NC(=O)C1CN(C(=O)Cc2c[nH]c3cc(Cl)ccc23)CC2CN(C(=O)c3ccc4oc(=O)[nH]c4c3)CC21 (stereo partly drawn) : its IC50 reads > 10 µM

Noted for CNC(=O)[C@H](CCCc1ccccc1)NC(=O)C1CN(C(=O)Cc2c[nH]c3cc(Cl)ccc23)CC2CN(C(=O)c3ccc4ncccc4c3)CC21 (stereo partly drawn) : its IC50 reads > 10 µM

====

# target.of.assay: CDK2/Cyclin E1(14-475) (Homo sapiens)
# experimental.details: Caliper LabChip EZ Reader mobility shift assay, inhibition of CDK2/Cyclin E1 activity
# Type: biochemical
# condition.details: class symbols A-D
readout.kind: IC50

Noted for COc1cc(C(=O)N2CC3CN(C(=O)Cc4c[nH]c5cc(Cl)ccc45)CC(C(=O)N[C@@H](CCCc4ccccc4)C(N)=O)C3C2)ccc1OC(C)C (stereo partly drawn) : its IC50 reads 500 to 5000 nM

Noted for CNC(=O)[C@H](CCCc1ccccc1)NC(=O)C1CN(C(=O)c2[nH]ccc2C)CC2CN(C(=O)c3ccc(OC(C)C)c(OC)c3)CC21 (stereo partly drawn) : its IC50 reads > 10000 nM

Noted for COc1cc(C(=O)N2CC3CN(C(=O)Cc4c[nH]c5cc(Cl)ccc45)CC(C(=O)NC(CCCc4ccccc4)c4ncccn4)C3C2)ccc1OC(C)C (stereo not drawn) : its IC50 reads ≤ 500 nM

====

For each record, write down the corresponding pIC50.
# target.of.assay: CDK2/Cyclin E1(14-475) (Homo sapiens)
# experimental.details: Caliper LabChip EZ Reader mobility shift assay, inhibition of CDK2/Cyclin E1 activity
# Assay type: biochemical
# condition.details: class symbols A-D
pIC50: −log10 of the molar value.

Bench note, CDK2/Cyclin E1(14-475) (Homo sapiens): entry CNC(=O)[C@@H](NC(=O)C1CN(C(=O)Cc2c[nH]c3cc(Cl)ccc23)CC2CN(C(=O)c3cc(-c4ccccc4)n[nH]3)CC21)[C@H](C)OCC1CCCCC1 (stereo partly drawn) , its pIC50 = < 5.00

Bench note, CDK2/Cyclin E1(14-475) (Homo sapiens): entry CNC(=O)[C@H](CCCc1ccccc1)NC(=O)C1CN(C(=O)Cc2c[nH]c3cc(Cl)ccc23)CC2CN(C(=O)c3cc4ccccc4cn3)CC21 (stereo partly drawn) , its pIC50 = < 5.00

Bench note, CDK2/Cyclin E1(14-475) (Homo sapiens): entry CNC(=O)[C@H](CCCc1ccccc1)NC(=O)C1CN(C(=O)Cc2c[nH]c3cc(Cl)ccc23)CC2CN(C(=O)c3ccc(NS(C)(=O)=O)c(OC)c3)CC21 (stereo partly drawn) , its pIC50 = < 5.00

Bench note, CDK2/Cyclin E1(14-475) (Homo sapiens): entry C[C@H](OCc1ccc(F)cc1)[C@H](NC(=O)C1CN(C(=O)Cc2c[nH]c3cc(Cl)ccc23)CC2CN(C(=O)c3ccc(OC4CC4)cc3)CC21)C(N)=O (stereo partly drawn) , its pIC50 = 5.30 to 6.30

Bench note, CDK2/Cyclin E1(14-475) (Homo sapiens): entry CCOc1cnc(C(=O)N2CC3CN(C(=O)Cc4c[nH]c5cc(Cl)ccc45)CC(C(=O)N[C@@H](CCCc4ccccc4)C(=O)NC)C3C2)cn1 (stereo partly drawn) , its pIC50 = < 5.00

Bench note, CDK2/Cyclin E1(14-475) (Homo sapiens): entry CNC(=O)[C@H](CCCc1ccccc1)NC(=O)C1CN(C(=O)Cc2c[nH]c3cc(Cl)ccc23)CC2CN(C(=O)c3ccc(S(N)(=O)=O)c(OC)c3)CC21 (stereo partly drawn) , its pIC50 = < 5.00

====

For each record, write down the corresponding IC50.
# target.of.assay: CDK2/Cyclin E1(14-475) (Homo sapiens, UniProt P24941)
# experimental.details: Caliper LabChip EZ Reader mobility shift assay, inhibition of CDK2/Cyclin E1 activity
# Type: biochemical
# condition.details: class symbols A-D

Noted for COc1cc(C(=O)N2CC3CN(C(=O)Cc4c[nH]c5cc(Cl)ccc45)CC(C(=O)Nc4ccc(Cc5ccccc5)nc4)C3C2)ccc1OC(C)C (stereo not drawn) [I-241] : its IC50 reads > 10 µM

Noted for CNC(=O)[C@H](CCCc1ccccc1)NC(=O)C1CN(C(=O)Cc2c[nH]c3ccccc23)CC2CN(C(=O)c3ccc(OC(C)C)c(OC)c3)CC21 (stereo partly drawn) [I-223] : its IC50 reads > 10 µM

Noted for CNC(=O)[C@H](CCCc1ccccc1)NC(=O)C1CN(C(=O)Cc2nnn[nH]2)CC2CN(C(=O)c3ccc(OC(C)C)c(OC)c3)CC21 (stereo partly drawn) [I-186] : its IC50 reads > 10 µM

Noted for CNC(=O)[C@H](CCCc1ccccc1)NC(=O)C1CN(C(=O)Cc2cccc3[nH]ccc23)CC2CN(C(=O)c3ccc(OC(C)C)c(OC)c3)CC21 (stereo partly drawn) [I-178] : its IC50 reads > 10 µM

Noted for CNC(=O)[C@H](CCCc1ccccc1)NC(=O)C1CN(C(=O)Cc2c[nH]c3cc(Cl)ccc23)CC2CN(C(=O)c3ccc(NC(=O)CC4CC4)c(OC)c3)CC21 (stereo partly drawn) [I-69] : its IC50 reads > 10 µM

Noted for CNC(=O)[C@H](CCCc1ccccc1)NC(=O)C1CN(C(=O)Cc2c[nH]c3ccc(OC)cc23)CC2CN(C(=O)c3ccc(OC(C)C)c(OC)c3)CC21 (stereo partly drawn) [I-200] : its IC50 reads 5 to 10 µM

====

# target.of.assay: CDK2/Cyclin E1(14-475) (Homo sapiens)
# experimental.details: Caliper LabChip EZ Reader mobility shift assay, inhibition of CDK2/Cyclin E1 activity
# Type: biochemical
# condition.details: class symbols A-D
pIC50: −log10 of the molar value.
readout.kind: pIC50

Bench note, CDK2/Cyclin E1(14-475) (Homo sapiens): entry CNC(=O)[C@H](CCCc1ccccc1)NC(=O)C1CN(C(=O)c2cccc3cc[nH]c23)CC2CN(C(=O)c3ccc(OC(C)C)c(OC)c3)CC21 (stereo partly drawn) , its pIC50 = < 5.00

Bench note, CDK2/Cyclin E1(14-475) (Homo sapiens): entry CNC(=O)[C@H](NC(=O)C1CN(C(=O)Cc2c[nH]c3cc(Cl)ccc23)CC2CN(C(=O)c3ccc(OC(C)C)c(OC)c3)CC21)[C@@H](C)OCC1CCCCC1 (stereo partly drawn) , its pIC50 = < 5.00

Bench note, CDK2/Cyclin E1(14-475) (Homo sapiens): entry CNC(=O)[C@H](CCCc1ccccc1)NC(=O)C1CN(C(=O)Cc2ccccn2)CC2CN(C(=O)c3ccc(OC(C)C)c(OC)c3)CC21 (stereo partly drawn) , its pIC50 = < 5.00

Bench note, CDK2/Cyclin E1(14-475) (Homo sapiens): entry CNC(=O)C(CCCC1CCCC1)NC(=O)C1CN(C(=O)Cc2c[nH]c3cc(Cl)ccc23)CC2CN(C(=O)c3ccc(OC(C)C)c(OC)c3)CC21 (stereo not drawn) , its pIC50 = 5.30 to 6.30

Bench note, CDK2/Cyclin E1(14-475) (Homo sapiens): entry CNC(=O)[C@H](CCCc1ccccc1)NC(=O)C1CN(C(=O)c2cc(C)[nH]n2)CC2CN(C(=O)c3ccc(OC(C)C)c(OC)c3)CC21 (stereo partly drawn) , its pIC50 = < 5.00

Bench note, CDK2/Cyclin E1(14-475) (Homo sapiens): entry COc1cc(C(=O)N2CC3CN(C(=O)Cc4c[nH]c5cc(Cl)ccc45)CC(C(=O)NC4CCCN(C(=O)Cc5ccccc5)C4)C3C2)ccc1OC(C)C (stereo not drawn) , its pIC50 = < 5.00

Bench note, CDK2/Cyclin E1(14-475) (Homo sapiens): entry CNC(=O)[C@H](CCCc1ccccc1)NC(=O)C1CN(C(=O)Cc2c[nH]c3cc(Cl)ccc23)CC2CN(C(=O)c3ccc(C#N)cn3)CC21 (stereo partly drawn) , its pIC50 = < 5.00

Bench note, CDK2/Cyclin E1(14-475) (Homo sapiens): entry CNC(=O)[C@@H](NC(=O)C1CN(C(=O)Cc2c[nH]c3cc(Cl)ccc23)CC2CN(C(=O)c3ccc(OC(C)C)c(OC)c3)CC21)[C@@H](C)OCc1ccccc1 (stereo partly drawn) , its pIC50 = 5.30 to 6.30

Bench note, CDK2/Cyclin E1(14-475) (Homo sapiens): entry CNC(=O)[C@H](CCCc1ccccc1)NC(=O)C1CN(C(=O)c2n[nH]c3ccccc23)CC2CN(C(=O)c3ccc(OC(C)C)c(OC)c3)CC21 (stereo partly drawn) , its pIC50 = < 5.00

Bench note, CDK2/Cyclin E1(14-475) (Homo sapiens): entry CNC(=O)[C@H](CCCC1CCC(O)CC1)NC(=O)C1CN(C(=O)Cc2c[nH]c3cc(Cl)ccc23)CC2CN(C(=O)c3ccc(OC(C)C)c(OC)c3)CC21 (stereo partly drawn) , its pIC50 = < 5.00

Bench note, CDK2/Cyclin E1(14-475) (Homo sapiens): entry CNC(=O)[C@H](CCCc1ccccc1)NC(=O)C1CN(C(=O)Cc2c[nH]c3cc(Cl)ccc23)CC2CN(C(=O)c3ncccn3)CC21 (stereo partly drawn) , its pIC50 = < 5.00

Bench note, CDK2/Cyclin E1(14-475) (Homo sapiens): entry CNC(=O)[C@@H](CCCC1CCOCC1)NC(=O)C1CN(C(=O)Cc2c[nH]c3cc(Cl)ccc23)CC2CN(C(=O)c3ccc(OC(C)C)c(OC)c3)CC21 (stereo partly drawn) , its pIC50 = 5.00 to 5.30
